Method summary: In vitro urine stability assay (HPLC) of In-111 labeled peptide
Assay type: in vitro ADME
Experimental setup: rat urine, 37EC, 4 hours
*1 amine or outer side, *2 acyl side, *3 side chain or, on linkers, in order; H or OH if unused. Where a SMILES comes first, the peptide text is derived from it. [ ]: non-standard residue; d: D form. The star is where a group is joined. ξ: configuration not given here. Ala(piperidin-4-yl) = O=C([C@H](CC1CCN([*:3])CC1)N[*:1])[*:2]; Gly(1-amidinopiperidin-4-yl) = N=C(N)N1CCC([C@H](N)C(=O)O)CC1; DTPA = O=C(O)CN(CCN(CC(=O)O)CC(=O)O)CCN(CC(=O)O)CC(=O)*; ξGly(4-Pip(1-amidino)) = N=C(N)N1CCC(C(N)C(=O)O)CC1; tBuAla = CC(C)(C)C[C@H](N)C(=O)O; Tle = CC(C)(C)[C@H](N)C(=O)O; dPip = O=C(O)[C@H]1CCCCN1; Ac6c = NC1(C(=O)O)CCCCC1
For each entry below, report its % of peptide at 4 hours after incubation at 37EC, Urine value.
The reply should contain only the number, in %.

Name the recorded % of peptide at 4 hours after incubation at 37EC, Urine for CC[C@H](C)[C@H](NC(=O)[C@H](Cc1ccc(O)cc1)NC(=O)[C@@H]1CCCN1C(=O)C(CCc1ccnc(N)n1)NC(=O)[C@H](CCCNC(=N)N)NC(=O)[C@@H]1CCCN1C(=O)[C@@H](CCCCN)NC(=O)CN(CCN(CCN(CC(=O)O)CC(=O)O)CC(=O)O)CC(=O)O)C(=O)N[C@@H](CC(C)C)C(=O)O (single isomer, unassigned) .
4.7

Name the recorded % of peptide at 4 hours after incubation at 37EC, Urine for CC(C)C[C@H](NC(=O)[C@@H](NC(=O)[C@H](Cc1ccc(O)cc1)NC(=O)[C@H]1CCCCN1C(=O)[C@H](CCCNC(=N)N)NC(=O)C(NC(=O)[C@@H]1CCCN1C(=O)[C@@H](CCCCN)NC(=O)CN(CCN(CCN(CC(=O)O)CC(=O)O)CC(=O)O)CC(=O)O)C1CCN(C(=N)N)CC1)C(C)(C)C)C(=O)O (stereo partly drawn) ({DTPA}-[dK]P[ξGly(4-Pip(1-amidino))]R[dPip]Y[Tle]L-OH) .
91.9

Name the recorded % of peptide at 4 hours after incubation at 37EC, Urine for CC(C)C[C@H](NC(=O)[C@@H](NC(=O)[C@H](Cc1ccc(O)cc1)NC(=O)[C@@H]1CCCN1C(=O)[C@H](CCCNC(=N)N)NC(=O)[C@@H](NC(=O)[C@@H]1CCCN1C(=O)[C@H](CC1CCNCC1)NC(=O)CN(CCN(CCN(CC(=O)O)CC(=O)O)CC(=O)O)CC(=O)O)C1CCN(C(=N)N)CC1)C(C)(C)C)C(=O)O ({DTPA}-[Ala(piperidin-4-yl)]P[Gly(1-amidinopiperidin-4-yl)]RPY[Tle]L-OH) .
98.3

Name the recorded % of peptide at 4 hours after incubation at 37EC, Urine for CC(C)(C)C[C@H](NC(=O)[C@@H](NC(=O)[C@H](Cc1ccc(O)cc1)NC(=O)[C@@H]1CCCN1C(=O)[C@H](CCCNC(=N)N)NC(=O)C(NC(=O)[C@@H]1CCCN1C(=O)[C@@H](CCCCN)NC(=O)CN(CCN(CCN(CC(=O)O)CC(=O)O)CC(=O)O)CC(=O)O)C1CCN(C(=N)N)CC1)C(C)(C)C)C(=O)O (stereo partly drawn) ({DTPA}-[dK]P[ξGly(4-Pip(1-amidino))]RPY[Tle][tBuAla]-OH) .
72.3

Name the recorded % of peptide at 4 hours after incubation at 37EC, Urine for CC(C)C[C@H](NC(=O)[C@@H](NC(=O)[C@H](Cc1ccc(O)cc1)NC(=O)[C@@H]1CCCN1C(=O)[C@H](CCCNC(=N)N)NC(=O)C(NC(=O)[C@@H]1CCCN1C(=O)[C@@H](CCCCN)NC(=O)CN(CCN(CCN(CC(=O)O)CC(=O)O)CC(=O)O)CC(=O)O)C1CCN(C(=N)N)CC1)C(C)(C)C)C(=O)O (single isomer, unassigned) .
63.0

Name the recorded % of peptide at 4 hours after incubation at 37EC, Urine for CC(C)C[C@H](NC(=O)C1(NC(=O)[C@H](Cc2ccc(O)cc2)NC(=O)[C@@H]2CCCN2C(=O)[C@H](CCCNC(=N)N)NC(=O)C(NC(=O)[C@@H]2CCCN2C(=O)[C@@H](CCCCN)NC(=O)CN(CCN(CCN(CC(=O)O)CC(=O)O)CC(=O)O)CC(=O)O)C2CCN(C(=N)N)CC2)CCCCC1)C(=O)O (stereo partly drawn) ({DTPA}-[dK]P[ξGly(4-Pip(1-amidino))]RPY[Ac6c]L-OH) .
84.9
